assay: Single dose plasma PK after IP doses; conditions: mouse, 64 mg/kg
*1 amine or outer side, *2 acyl side, *3 side chain or, on linkers, in order; H or OH if unused. Where a SMILES comes first, the peptide text is derived from it. Bridges are numbered along the chain shown (N, C = ends). [ ]: non-standard residue; d: D form. The star is where a group is joined. Orn(4R-OH,5R-OCH2CH2NMe3+) = C[N+](C)(C)CCO[C@@H](N[*:3])[C@H](O)C[C@H](N[*:1])C(=O)[*:2]; pTerphenylCO(4''-OnC5H11) = CCCCCOc1ccc(-c2ccc(-c3ccc(C(=O)*)cc3)cc2)cc1; hTyr(3S-OH,4S-OH) = N[C@H](C(=O)O)[C@H](O)[C@@H](O)c1ccc(O)cc1; Pro(3S-OH,4S-Me) = C[C@H]1CN[C@H](C(=O)O)[C@H]1O; Hyp = O=C(O)[C@@H]1C[C@@H](O)CN1
MEASURE_NAME: AUC(0-inf)

[
  {
    "COMPOUND": "CCCCCOc1ccc(-c2ccc(-c3ccc(C(=O)N[C@H]4C[C@@H](O)[C@@H](OCC[N+](C)(C)C)NC(=O)[C@@H]5[C@@H](O)[C@@H](C)CN5C(=O)[C@H]([C@@H](C)O)NC(=O)[C@H]([C@H](O)[C@@H](O)c5ccc(O)cc5)NC(=O)[C@@H]5C[C@@H](O)CN5C(=O)[C@H]([C@@H](C)O)NC4=O)cc3)cc2)cc1 [CD101] ({pTerphenylCO(4''-OnC5H11)}-[Orn(4R-OH,5R-OCH2CH2NMe3+)]T[Hyp][hTyr(3S-OH,4S-OH)]T[Pro(3S-OH,4S-Me)]; lactam 1-C)",
    "OBSERVED_VALUE": "93 to 4050 µg·h/mL"
  }
]

* * *

experiment: Single ascending dose IV study in healthy adult subjects (safety, PK); type: in vivo, human; settings: human, plasma, intravenous, incorporating data from later collection times; read-out: terminal t1/2
*1 amine or outer side, *2 acyl side, *3 side chain or, on linkers, in order; H or OH if unused. Where a SMILES comes first, the peptide text is derived from it. Bridges are numbered along the chain shown (N, C = ends). [ ]: non-standard residue; d: D form. The star is where a group is joined. Orn(4R-OH,5R-OCH2CH2NMe3+) = C[N+](C)(C)CCO[C@@H](N[*:3])[C@H](O)C[C@H](N[*:1])C(=O)[*:2]; pTerphenylCO(4''-OnC5H11) = CCCCCOc1ccc(-c2ccc(-c3ccc(C(=O)*)cc3)cc2)cc1; hTyr(3S-OH,4S-OH) = N[C@H](C(=O)O)[C@H](O)[C@@H](O)c1ccc(O)cc1; Pro(3S-OH,4S-Me) = C[C@H]1CN[C@H](C(=O)O)[C@H]1O; Hyp = O=C(O)[C@@H]1C[C@@H](O)CN1

[
  {
    "COMPOUND": "CCCCCOc1ccc(-c2ccc(-c3ccc(C(=O)N[C@H]4C[C@@H](O)[C@@H](OCC[N+](C)(C)C)NC(=O)[C@@H]5[C@@H](O)[C@@H](C)CN5C(=O)[C@H]([C@@H](C)O)NC(=O)[C@H]([C@H](O)[C@@H](O)c5ccc(O)cc5)NC(=O)[C@@H]5C[C@@H](O)CN5C(=O)[C@H]([C@@H](C)O)NC4=O)cc3)cc2)cc1 [CD101] ({pTerphenylCO(4''-OnC5H11)}-[Orn(4R-OH,5R-OCH2CH2NMe3+)]T[Hyp][hTyr(3S-OH,4S-OH)]T[Pro(3S-OH,4S-Me)]; lactam 1-C)",
    "half-life": "127 to 146 h"
  }
]

* * *

assay: Single dose plasma PK after IP doses; settings: mouse, 64 mg/kg
*1 amine or outer side, *2 acyl side, *3 side chain or, on linkers, in order; H or OH if unused. Where a SMILES comes first, the peptide text is derived from it. Bridges are numbered along the chain shown (N, C = ends). [ ]: non-standard residue; d: D form. The star is where a group is joined. Orn(4R-OH,5R-OCH2CH2NMe3+) = C[N+](C)(C)CCO[C@@H](N[*:3])[C@H](O)C[C@H](N[*:1])C(=O)[*:2]; pTerphenylCO(4''-OnC5H11) = CCCCCOc1ccc(-c2ccc(-c3ccc(C(=O)*)cc3)cc2)cc1; hTyr(3S-OH,4S-OH) = N[C@H](C(=O)O)[C@H](O)[C@@H](O)c1ccc(O)cc1; Pro(3S-OH,4S-Me) = C[C@H]1CN[C@H](C(=O)O)[C@H]1O; Hyp = O=C(O)[C@@H]1C[C@@H](O)CN1

[
  {
    "COMPOUND": "CCCCCOc1ccc(-c2ccc(-c3ccc(C(=O)N[C@H]4C[C@@H](O)[C@@H](OCC[N+](C)(C)C)NC(=O)[C@@H]5[C@@H](O)[C@@H](C)CN5C(=O)[C@H]([C@@H](C)O)NC(=O)[C@H]([C@H](O)[C@@H](O)c5ccc(O)cc5)NC(=O)[C@@H]5C[C@@H](O)CN5C(=O)[C@H]([C@@H](C)O)NC4=O)cc3)cc2)cc1 [CD101] ({pTerphenylCO(4''-OnC5H11)}-[Orn(4R-OH,5R-OCH2CH2NMe3+)]T[Hyp][hTyr(3S-OH,4S-OH)]T[Pro(3S-OH,4S-Me)]; lactam 1-C)",
    "Cmax": "2.6 to 77 µg/mL"
  }
]

* * *

test system: azole-resistant C. albicans R357 strain; test: MIC and CLSI susceptibility, azole-resistant C. albicans R357; assay type: cell-based, Candida albicans; conditions: C. albicans R357 isolated from human blood

[
  {
    "SMILES_CODE": "C[C@@H](c1ncncc1F)[C@](O)(Cn1cncn1)c1ccc(F)cc1F",
    "Susceptibility of strain R357 in words": "resistant"
  },
  {
    "SMILES_CODE": "CC[C@@H]([C@H](C)O)n1ncn(-c2ccc(N3CCN(c4ccc(OC[C@@H]5CO[C@@](Cn6cncn6)(c6ccc(F)cc6F)C5)cc4)CC3)cc2)c1=O",
    "Susceptibility of strain R357 in words": "resistant"
  },
  {
    "SMILES_CODE": "OC(Cn1cncn1)(Cn1cncn1)c1ccc(F)cc1F",
    "Susceptibility of strain R357 in words": "resistant"
  }
]

* * *

Assay: Single ascending dose IV study in healthy adult subjects (safety, PK)
Type: in vivo, human
Conditions: human, plasma; 100 mg 1-hour IV infusion; read-out: C144
Experimental: In a first study, CD101 was administered by IV injection to healthy adult subjects. […] Dose levels of CD101 assessed follow an ascending single-dose regimen (50, 100, 200, or 400 mg). Pharmacokinetics were first determined by analyzing plasma and urine samples for concentration of CD101 obtained from subjects who received CD101 in each cohort at various time points after administration of the single dose of the study drug.
*1 amine or outer side, *2 acyl side, *3 side chain or, on linkers, in order; H or OH if unused. Where a SMILES comes first, the peptide text is derived from it. Bridges are numbered along the chain shown (N, C = ends). [ ]: non-standard residue; d: D form. The star is where a group is joined. Orn(4R-OH,5R-OCH2CH2NMe3+) = C[N+](C)(C)CCO[C@@H](N[*:3])[C@H](O)C[C@H](N[*:1])C(=O)[*:2]; pTerphenylCO(4''-OnC5H11) = CCCCCOc1ccc(-c2ccc(-c3ccc(C(=O)*)cc3)cc2)cc1; hTyr(3S-OH,4S-OH) = N[C@H](C(=O)O)[C@H](O)[C@@H](O)c1ccc(O)cc1; Pro(3S-OH,4S-Me) = C[C@H]1CN[C@H](C(=O)O)[C@H]1O; Hyp = O=C(O)[C@@H]1C[C@@H](O)CN1

[
  {
    "COMPOUND": "CCCCCOc1ccc(-c2ccc(-c3ccc(C(=O)N[C@H]4C[C@@H](O)[C@@H](OCC[N+](C)(C)C)NC(=O)[C@@H]5[C@@H](O)[C@@H](C)CN5C(=O)[C@H]([C@@H](C)O)NC(=O)[C@H]([C@H](O)[C@@H](O)c5ccc(O)cc5)NC(=O)[C@@H]5C[C@@H](O)CN5C(=O)[C@H]([C@@H](C)O)NC4=O)cc3)cc2)cc1 [CD101] ({pTerphenylCO(4''-OnC5H11)}-[Orn(4R-OH,5R-OCH2CH2NMe3+)]T[Hyp][hTyr(3S-OH,4S-OH)]T[Pro(3S-OH,4S-Me)]; lactam 1-C)",
    "concentration at 144 h, ng/mL": 854
  }
]

* * *

assay: Single ascending dose IV study in healthy adult subjects (safety, PK); assay type: in vivo, human; details: human, plasma; 50 mg 1-hour IV infusion; read-out: C144
*1 amine or outer side, *2 acyl side, *3 side chain or, on linkers, in order; H or OH if unused. Where a SMILES comes first, the peptide text is derived from it. Bridges are numbered along the chain shown (N, C = ends). [ ]: non-standard residue; d: D form. The star is where a group is joined. Orn(4R-OH,5R-OCH2CH2NMe3+) = C[N+](C)(C)CCO[C@@H](N[*:3])[C@H](O)C[C@H](N[*:1])C(=O)[*:2]; pTerphenylCO(4''-OnC5H11) = CCCCCOc1ccc(-c2ccc(-c3ccc(C(=O)*)cc3)cc2)cc1; hTyr(3S-OH,4S-OH) = N[C@H](C(=O)O)[C@H](O)[C@@H](O)c1ccc(O)cc1; Pro(3S-OH,4S-Me) = C[C@H]1CN[C@H](C(=O)O)[C@H]1O; Hyp = O=C(O)[C@@H]1C[C@@H](O)CN1

[
  {
    "COMPOUND": "CCCCCOc1ccc(-c2ccc(-c3ccc(C(=O)N[C@H]4C[C@@H](O)[C@@H](OCC[N+](C)(C)C)NC(=O)[C@@H]5[C@@H](O)[C@@H](C)CN5C(=O)[C@H]([C@@H](C)O)NC(=O)[C@H]([C@H](O)[C@@H](O)c5ccc(O)cc5)NC(=O)[C@@H]5C[C@@H](O)CN5C(=O)[C@H]([C@@H](C)O)NC4=O)cc3)cc2)cc1 [CD101] ({pTerphenylCO(4''-OnC5H11)}-[Orn(4R-OH,5R-OCH2CH2NMe3+)]T[Hyp][hTyr(3S-OH,4S-OH)]T[Pro(3S-OH,4S-Me)]; lactam 1-C)",
    "UNIT_DESCRIPTOR": "ng/mL",
    "concentration at 144 h": 481
  }
]
